pKi for assorted compounds
targetSystem: D(2) dopamine receptor (Homo sapiens)
experimentNotes: In vitro binding affinity is the ability to displace [3H]spiperone from human Dopamine receptor D2 expressed in CHO-K1 cells
Assay type: cell-based
Kindly note that pKi refers to -log10 of the concentration in mol/L and answer with the value alone.

Input: State its pKi for this compound: CCCN(CCC)C1CCc2ncccc2C1 (stereo unspecified)
Output: 6.57

Input: State its pKi for this compound: CCCN(CCC)C1CCc2nc(N)sc2C1 (stereo unspecified)
Output: 6.34

Now, please, on to the next compound.
Input: State its pKi for this compound: CCCN(CCC)C1CCc2nc(N)ccc2C1 (stereo unspecified)
Output: 7.77

* * *

targetSystem: D(3) dopamine receptor (Homo sapiens)
Sequence (P35462 whole entry): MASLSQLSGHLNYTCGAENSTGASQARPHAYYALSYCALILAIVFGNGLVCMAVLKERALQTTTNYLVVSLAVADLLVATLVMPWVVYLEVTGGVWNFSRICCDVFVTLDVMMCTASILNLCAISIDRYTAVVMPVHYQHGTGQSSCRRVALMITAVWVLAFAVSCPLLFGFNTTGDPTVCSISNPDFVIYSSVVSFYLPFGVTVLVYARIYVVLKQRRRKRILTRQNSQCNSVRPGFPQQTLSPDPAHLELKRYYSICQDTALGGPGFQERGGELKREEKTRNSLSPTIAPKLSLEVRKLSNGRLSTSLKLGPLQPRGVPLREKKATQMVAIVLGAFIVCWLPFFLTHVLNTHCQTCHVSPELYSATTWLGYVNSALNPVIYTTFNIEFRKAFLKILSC
experimentNotes: In vitro binding affinity is the ability to displace [3H]spiperone from human Dopamine receptor D3 expressed in CHO-K1 cells.
Format: cell-based
property: pKi
Kindly note that pKi refers to -log10 of the concentration in mol/L and answer with the value alone.

Solved cases (3 shown):
Input: State its pKi for this compound: CCCN(CCC)C1CCc2nc(OC)ccc2C1 (centres undefined)
Output: 6.80

Input: State its pKi for this compound: CCCN(CCC)C1CCc2ncccc2C1 (centres undefined)
Output: 8.30

Input: State its pKi for this compound: CCCN(CCC)C1CCc2nc(N)ccc2C1 (centres undefined)
Output: 9.06

Now, please, on to the next compound.
Input: State its pKi for this compound: CCCN(CCC)C1CCc2cc(OC)ccc2C1 (centres undefined)
Output: 6.44

* * *

targetSystem: UniProt:P14416
experimentNotes: In vitro binding affinity is the ability to displace [3H]N-0437 from human Dopamine receptor D2 expressed in CHO-K1 cells
Assay type: cell-based
property: Ki
Report field: quantity (unit follows the number).

Input: State its Ki for this molecule: CCCN(CCC)C1CCc2cc(OC)ccc2C1 (stereo not drawn)
Output: 3.94 µM

Input: State its Ki for this molecule: CCCN(CCC)C1CCc2ncccc2C1 (stereo not drawn)
Output: 0.466 µM

Now, please, on to the next molecule.
Input: State its Ki for this molecule: CCCN(CCC)C1CCc2nc(N)sc2C1 (stereo not drawn)
Output: 0.057 µM

* * *

targetSystem: D(2) dopamine receptor (Homo sapiens, UniProt P14416)
Sequence (P14416 whole entry): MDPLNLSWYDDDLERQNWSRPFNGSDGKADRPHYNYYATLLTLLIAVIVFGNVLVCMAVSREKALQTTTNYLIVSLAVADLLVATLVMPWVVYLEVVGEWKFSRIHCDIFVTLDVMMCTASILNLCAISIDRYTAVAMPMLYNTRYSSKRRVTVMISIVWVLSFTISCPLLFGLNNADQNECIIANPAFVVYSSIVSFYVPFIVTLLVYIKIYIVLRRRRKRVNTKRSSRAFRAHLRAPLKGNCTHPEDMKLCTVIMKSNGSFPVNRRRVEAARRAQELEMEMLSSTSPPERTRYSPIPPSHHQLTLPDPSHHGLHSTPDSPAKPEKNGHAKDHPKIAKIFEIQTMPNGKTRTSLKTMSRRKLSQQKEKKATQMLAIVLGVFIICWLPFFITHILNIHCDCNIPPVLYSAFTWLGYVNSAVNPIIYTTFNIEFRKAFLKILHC
experimentNotes: In vitro binding affinity is the ability to displace [3H]spiperone from human Dopamine receptor D2 expressed in CHO-K1 cells
Assay type: cell-based
property: Ki

Input: Jot down Ki (D(2) dopamine receptor (Homo sapiens, UniProt P14416)) of CCCN(CCC)C1CCc2nc(OC)ccc2C1 (stereo not drawn) .
Output: > 3.33 µM

Input: Jot down Ki (D(2) dopamine receptor (Homo sapiens, UniProt P14416)) of CCCN(CCC)C1CCc2cc(OC)ccc2C1 (stereo not drawn) .
Output: > 10 µM

Now, please, on to the next molecule.
Input: Jot down Ki (D(2) dopamine receptor (Homo sapiens, UniProt P14416)) of CCCN(CCC)C1CCc2n[nH]cc2C1 (stereo not drawn) .
Output: > 3.33 µM
